protocol-details: gradient 5% acetonitrile 3 min, to 50% in 2 min, to 85% in 15 min, held 3 min, 100 µL/min
run-conditions: column: Zorbax Extend-C18 2.1 x 50 mm; eluents: water / acetonitrile, 0.1% formic acid
# note: exactly 800 s is not below, so it is 0.0; use 1.0 for RP-LC retention time strictly under it

Cc1nn(C)c(C)c1S(=O)(=O)N1CCCC(OCc2noc(C3CCOCC3)n2)C1 (stereo not drawn): 1.0
O=C(C1CCN(c2cncnc2N2CCCCC2)CC1)N1CCCC1: 1.0
COc1ccc(N2CC(c3nc(-c4ccc(C(F)(F)F)cc4)no3)CC2=O)cc1OC (stereo not drawn): 0.0
CN(C)S(=O)(=O)c1ccc(C(=O)Nc2sc3c(c2C#N)CC(C)(C)NC3(C)C)cc1: 1.0
CCn1c(=O)c(N2CCN(C(=O)Nc3ccc4c(c3)OCO4)CC2)nc2ccccc21: 0.0
CC(C)NC(=O)C1(c2ccc(NC(=O)C(C)C)cc2)CCCCC1: 0.0
CCOC(=O)c1ccccc1NC(=O)Cn1c(=O)n(CC)c(=O)c2c1cc(C)n2C: 0.0
Cc1ccc(N2C(=O)N(Cc3ccc(F)cc3)S(=O)(=O)c3cccnc32)cc1: 0.0
Cc1ccc(S(=O)(=O)N2CCCC(Cn3c(C)nc4cccnc43)C2)cc1 (stereo not drawn): 1.0
CCCNC(=O)c1cn(CCC)nc1S(=O)(=O)N1CCN(c2ccccc2OCC)CC1: 0.0
CC(C)c1ccc(NC(=O)CSc2ccc(NC(=O)C3CC3)nn2)cc1: 0.0
CCCn1cc(C(=O)Nc2ccc(OC)c(OC)c2)c(=O)c2ccc(C)nc21: 0.0
CCC(=O)N1CCCc2cc(NC(=O)COc3ccc(F)cc3)ccc21: 0.0
Cc1ccn2c(Nc3ccccc3C)c(-c3c(F)cccc3Cl)nc2c1: 1.0
Cc1nnc(N2CCCC(C(=O)NCc3ccc(Cl)cc3)C2)c2nn(-c3ccccc3)c(C)c12 (stereo not drawn): 1.0
CCN1C(=O)c2cccnc2Sc2cc(NC(=O)COc3ccc(F)cc3)ccc21: 0.0
CCOC(=O)C1CCCN(Cc2nc(-c3cc(OC)c(OC)c(OC)c3)no2)C1 (stereo not drawn): 1.0
CCOc1cccc(-c2noc(Cn3ncn4nc(-c5cc(C)ccc5C)cc4c3=O)n2)c1: 0.0
O=C(C1CC(=O)N(c2ccc3c(c2)CCN3C(=O)C2CC2)C1)N1CCC2(CC1)OCCO2 (stereo not drawn): 1.0
COc1ccccc1CNC(=O)C1(c2ccc(NS(C)(=O)=O)cc2)CCCCC1: 0.0
O=C(Nc1ccc2c(c1)OCO2)C1CCN(c2cc(N3CCSCC3)ncn2)CC1: 1.0
Cc1nc(-c2csc(S(=O)(=O)N3CCCC(C(=O)NCCc4ccc(Cl)cc4)C3)c2)no1 (stereo not drawn): 0.0
Cn1c(=O)c2c(NC(=O)c3ccco3)ccnc2n(C)c1=O: 1.0
COC(=O)c1c(C)[nH]c(C(=O)N2CCCC(C(=O)NCc3ccc(C)cc3)C2)c1C (stereo not drawn): 1.0
Cc1ccc(Oc2cccc(C(=O)Nc3ccc(-c4csc(C)n4)cc3)c2)nn1: 1.0
Cc1nnc2cc(N3CCN(Cc4ccc(C(C)C)cc4)CC3)cnn12: 1.0
CCOC(=O)c1cn(Cc2ccc(F)cc2)c2nc(C)ccc2c1=O: 0.0
CC(=O)Oc1ccc2ccc(=O)oc2c1OC(C)=O: 0.0
O=C(Nc1cccc(C(F)(F)F)c1)N1CCCC1c1nncn1C1CCCC1 (stereo not drawn): 1.0
COc1ccc(-c2cn3c(CC(=O)NCCc4cccs4)csc3n2)cc1OC: 1.0
COc1cccc(CNC2=NCCNC23CCN(S(=O)(=O)c2ccc(C(C)C)cc2)CC3)c1: 0.0
c1ccc(-c2noc(-c3ccccc3OC3CNC3)n2)cc1: 1.0
CN(C)[C@@H]1CN(C(=O)C2CCCC2)CC[C@@H]1CO: 1.0
COC(=O)[C@H](CC1C=NC=N1)NCC12CC3CC(CC(C3)C1)C2 (stereo partly drawn): 1.0
COC(=O)N1CCc2ccc(F)cc2C1C(=O)Nc1ccc(OC)c(Cl)c1 (stereo not drawn): 0.0
O=C(Nc1c(-c2ccc(F)cc2)nc2ccccn12)c1cccc(F)c1: 1.0
COc1ccc(-c2nc(-c3ccc4c(c3)oc(=O)n4C(C)C)no2)cc1: 0.0
